Target: Rac GTPase-activating protein 1 (Homo sapiens) (UniProt Q9H0H5)
Sequence (Q9H0H5 whole entry, looked up): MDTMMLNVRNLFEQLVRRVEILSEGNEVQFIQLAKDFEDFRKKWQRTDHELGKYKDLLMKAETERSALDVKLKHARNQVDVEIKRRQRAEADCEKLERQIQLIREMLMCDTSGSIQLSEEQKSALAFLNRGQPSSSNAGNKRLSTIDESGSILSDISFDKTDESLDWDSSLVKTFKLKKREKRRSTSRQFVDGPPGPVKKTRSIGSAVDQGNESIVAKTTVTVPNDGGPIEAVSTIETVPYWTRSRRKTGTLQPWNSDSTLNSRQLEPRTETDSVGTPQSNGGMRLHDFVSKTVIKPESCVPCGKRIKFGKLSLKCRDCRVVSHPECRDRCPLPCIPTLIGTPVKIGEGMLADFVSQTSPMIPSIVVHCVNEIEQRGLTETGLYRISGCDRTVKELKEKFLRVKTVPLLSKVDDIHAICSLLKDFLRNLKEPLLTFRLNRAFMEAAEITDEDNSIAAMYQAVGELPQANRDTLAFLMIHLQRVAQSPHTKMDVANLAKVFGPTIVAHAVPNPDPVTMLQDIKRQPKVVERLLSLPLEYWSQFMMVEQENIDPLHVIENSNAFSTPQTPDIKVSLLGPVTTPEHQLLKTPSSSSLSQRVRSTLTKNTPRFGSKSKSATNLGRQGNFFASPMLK
Assay: blockers of MgcRacGAP-driven Rac1 GTP hydrolysis – biochemical, ADP Hunter fluorescence, primary and confirmatory, confirmation (AID 624330);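 further: fluorescence reports GDP produced by GAP-driven GTP hydrolysis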
Details: MgcRacGAP-stimulated Rac1 GTP hydrolysis, at 30 µM, active compounds read high, GST-tagged Rac1 F28L mutant substrate
The campaign covered roughly 340,000 compounds. About 2,100 (0.62%) were called active. Not all results are given here. Results with a measured potency or affinity are listed apart.
parameter-measured: inhibition (%)
Report only the number, with the unit % understood.

Can you share its inhibition? I mean this compound: O=C1NC(=S)SC1=Cc1ccc(F)cc1
15.8

Can you look up the measured inhibition of S=c1[nH]nc2nnc3ccccc3n12 for me?
17.6

GET /values?readout=inhibition&item= CC1CCN(S(=O)(=O)c2ccc3[nH]c(=O)[nH]c3c2)CC1
6.82

Bench note: what inhibition did Cc1cccc(C(=O)NCC(=O)NNC(=O)c2ccccc2O)c1 show?
2.8

Return reported inhibition; argument: Cn1c(CCc2ccccc2)n[nH]c1=S
4.25

Entry CC(C)(C)N(Cc1ccccc1)C(=O)COC(=O)/C=C/c1ccc2c(c1)OCO2 has what inhibition?
7.28

# query: inhibition of entry Cc1ncsc1CCC(=O)N1CCCC(Nc2ccc(C(C)C)cc2)C1 (centres undefined)
5.76

Return reported inhibition; argument: COc1ccc(NC2CCCN(C(=O)CCc3cccc(Cl)c3)C2)cc1 (centres undefined)
-4.43

Which inhibition value belongs to Nn1c(SCC(=O)NCC2CCCO2)nnc1-c1cc(Cl)ccc1Cl (centres undefined) ?
5.2

Field request: inhibition | item: Cc1cc(=O)[nH]c(N/N=C/c2c[nH]c3ccccc23)n1
22.9

Which inhibition reading was recorded for the compound CC(NC(=O)N(Cc1ccccc1)Cc1ccc2c(c1)OCO2)(C(F)(F)F)C(F)(F)F ?
-1.55

Item under review: Cc1csc(NC(=O)CSc2nc(C)cs2)n1 . Reported inhibition?
3.74

I am curious: what inhibition value has been reported for Cc1ccc(NC2CCCN(C(=O)CCc3scnc3C)C2)cc1C (centres undefined) ?
10.7

What does the data say about its inhibition? Entry: COc1ccc(CCC(=O)N2CCCC(Nc3ccccc3)C2)cc1OC (centres undefined)
3.2

Consider the compound COc1ccc(OCc2cc(C(=O)NC(C)c3nc(C)cs3)no2)c(Cl)c1 (centres undefined) and give its measured inhibition.
7.35

What value of inhibition has been reported for the following compound? COc1ccccc1OCC(=O)N1CCCC(Nc2ccc(C)c(C)c2)C1 (centres undefined)
14.2

Can you share its inhibition? I mean this compound: O=C(CSc1ccccc1)N1CCCC(Nc2ccccc2)C1 (centres undefined)
8.49

Dear colleague, I am looking for the recorded inhibition of the following compound: COc1ccc(NC(=O)Cc2ccccc2)cn1
3.42

Looking for the measured inhibition of CC(C)c1ccc(NC2CCCN(C(=O)CCCn3cncn3)C2)cc1 (centres undefined) , can you help?
6.88

Fill blank: measured inhibition of the compound CC1CCN(S(=O)(=O)c2ccc3ccccc3c2)CC1 is ____.
1.45

Quick one: inhibition of Cc1ccc(NC2CCCN(C(=O)CCc3cn[nH]c3)C2)cc1C (centres undefined) ?
14.1

Bench note: what inhibition did COc1ccc(Br)cc1CNc1ccccc1 show?
26

What measured inhibition goes with O=C(O)C(O)Cc1c[nH]c2ccccc12 (centres undefined) ?
5.43

# get_value(readout='inhibition', item= O=C(O)COc1ccccc1/C=N/NC(=O)Cc1ccccc1 )
9.01

Field request: inhibition | item: CC(C)n1c(/N=C/c2c[nH]c3ccccc23)nc2ccccc21
1.11

inhibition lookup needed for O=C(CCN1C(=O)[C@@H]2Cc3ccccc3CN2C1=O)NCc1ccccc1Cl , thanks.
13.7

What value of measured inhibition is listed for O=C1CCCN1CCC(=O)N1CCCC(Nc2ccc(F)c(F)c2)C1 (centres undefined) ?
7.57

Please look up its inhibition: N#Cc1cc(-c2ccccc2)cnc1Sc1ccccc1
-2.07

For the compound shown here, Cn1cc(SCC(=O)Nc2ccc3c(c2)OCO3)c2ccccc21 , give the reported inhibition.
5.29

Tell me the measured inhibition of COc1ccc(NC2CCCN(C(=O)CSc3ccccn3)C2)cc1OC (centres undefined) , please.
30.4

Given the entry O=C(NCc1ccc(F)cc1F)Nc1cnccc1C(F)(F)F , report its measured inhibition.
0.3

Look up inhibition for this compound: Cn1c(=S)[nH]c2ccccc21
11.4

So what's the measured inhibition for this one? CC(C)c1ccc(NC2CCCN(C(=O)CCc3cn[nH]c3)C2)cc1 (centres undefined)
11.8

For CCOC(=O)C1(Cc2cccc(OC)c2)CCN(Cc2cccc3cnccc23)CC1 , what is its reported inhibition?
-0.92

Consider the compound COc1ccc(NC(=O)C(Cl)=C(Cl)Cl)cn1 and give its measured inhibition.
6.63

Suppose we examine the compound CCOc1ccccc1NC(=S)N1CCCCCC1 ; what inhibition value has been reported?
5.32

# get_value(readout='inhibition', item= O=C(COC(=O)c1ccccc1Cl)NCc1ccco1 )
6.58

Return reported inhibition; argument: O=C(Nc1ccc2c(c1)OCO2)O[C@@H]1C[C@H]2CCC(=O)N3CC[C@@H](C1)[C@@H]23
5.22

Can you look up the measured inhibition of CN=Cc1nc(-c2ccccc2)oc1O for me?
10.2

Param item = O=C(COC(=O)[C@@H]1CC(O)CN1S(=O)(=O)c1ccc2c(c1)OCCO2)Nc1ccccc1F (some centres undefined) ; retrieve measured inhibition.
1.86

Query: inhibition; subject: O=C(Nc1cccc(NC(=O)c2ccccc2)n1)c1ccccc1
8.99

Fill in: inhibition of Cc1ccc(NS(=O)(=O)c2ccc3c(c2)NC(=O)C(C)C(=O)N3)cc1C (centres undefined) is ___
-6.55

Please give the measured inhibition for this compound: COc1ccc(CC(=O)Nc2nc(C)cs2)cc1
12

Any idea what inhibition was measured for O=C1NC(=S)SC1=Cc1cc(Br)ccc1O ?
16.8

Fill in the blank: the reported inhibition of CCCCCN(C(=O)CCC(=O)OCc1cccc(C)c1)c1c(N)n(CCCC)c(=O)[nH]c1=O is ____.
5.1

Need inhibition, item COc1ccccc1OCCCCCCN1CCN(C)CC1
-3.02

Value lookup for inhibition; key = Fc1c(F)c(F)c(N/N=C/c2c[nH]c3ccccc23)c(F)c1F
3.69

Quick check: inhibition of COc1ccccc1OCCCCN1CCCCC1 ?
3.62

Any idea what its inhibition is? The compound is Brc1ccccc1OCCN1CCOCC1
17.5
